All values here come from patent US5021408A.

assay_details: Systemic (thymolytic) activity, thymus weight reduction after oral administration
Format: in vivo, rat (Wistar)
test_context: rat, in vivo, po
quantity_kind: ED50 at 96 h (mg/kg)

>>> value_reported("CCC(=O)SCC(=O)[C@@]1(OC(C)=O)[C@@H](C)C[C@H]2[C@@H]3CCC4=CC(=O)C=C[C@]4(C)[C@@]3(F)[C@@H](O)C[C@@]21C")
2.4
>>> value_reported("CC(=O)O[C@]1(C(=O)CSC(=O)CC(C)(C)C)[C@H](C)C[C@H]2[C@@H]3CCC4=CC(=O)C=C[C@]4(C)[C@@]3(F)[C@@H](O)C[C@@]21C")
3
>>> value_reported("CCCCC(=O)O[C@]1(C(=O)CSC(C)=O)CC[C@H]2[C@@H]3CCC4=CC(=O)C=C[C@]4(C)[C@H]3[C@@H](O)C[C@@]21C [Prednisolone-21-thioacetate-17-valerate]")
58
>>> value_reported("CCCC(=O)O[C@]1(C(=O)CSC(C)=O)CC[C@H]2[C@@H]3CCC4=CC(=O)CC[C@]4(C)[C@H]3[C@@H](O)C[C@@]21C [Example 1]")
350
>>> value_reported("CCC(=O)O[C@]1(C(=O)CSC(=O)CC)[C@@H](C)C[C@H]2[C@@H]3CCC4=CC(=O)C=C[C@]4(C)[C@@]3(Cl)[C@@H](O)C[C@@]21C")
19
